Reference source for all entries: patent EP4810611A2

Molecular target: TRBV9+TRAV26 antigen
Assay: BLI (OctetRed 96), antigen on AR2G sensors, antibody 126-2 nM, 1:1 model; run 2
measurement type: kon (M⁻¹ s⁻¹)
Just the number please, in M⁻¹ s⁻¹, no unit attached.

Consider the binder anti-TRBV9-3 monoclonal antibody (antibody, human IgG1, kappa, V domains shown) VH: QIQLVQSGPELREPGESVKLSCKASGYTFTDYLVHWVKQAPGKGLKWMGWINTYTGTPTYADDFEGRFVFSLEASASTANLQISNLKNEDTATYFCARSWRRGIRGLGFDYWGQGVFVTVSS VL: DVQMTQSPYNLAASPGESVSINCKASKSINKYLAWYQQKPGKPNKLLIYDGSTLQSGIPSRFSGSGSGTDFTLTIRGLEPEDFGLYYCQQHNEYPPTFGAGTKLELKR and give its recorded kon.
168000

Consider the binder anti-TRBV9-1 monoclonal antibody (antibody, human IgG1, kappa, V domains shown) VH: QIQLVQSGPELREPGESVKLSCKASGYTFTDYLVHWVKQAPGKGLKWMGWINTYTGTPTYADDFEGRFVFSLEASASTANLQISNLKNEDTATYFCARSWRRGLRGLGFDYWGQGVFVTVSS VL: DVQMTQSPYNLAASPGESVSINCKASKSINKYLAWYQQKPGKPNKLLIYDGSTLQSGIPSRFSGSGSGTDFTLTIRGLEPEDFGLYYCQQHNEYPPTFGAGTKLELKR and give its recorded kon.
658000

Consider the binder anti-TRBV9-2 monoclonal antibody (antibody, human IgG1, kappa, V domains shown) VH: QIQLVQSGPELREPGESVKLSCKASGYTFTDYLVHWVKQAPGKGLKWMGWINTYTGTPTYADDFEGRFVFSLEASASTANLQISNLKNEDTATYFCARSWRRGLRGIGFDYWGQGVFVTVSS VL: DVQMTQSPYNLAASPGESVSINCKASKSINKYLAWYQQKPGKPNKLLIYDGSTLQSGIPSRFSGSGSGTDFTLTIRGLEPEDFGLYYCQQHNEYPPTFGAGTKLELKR and give its recorded kon.
381000

Consider the binder anti-TRBV9-4 monoclonal antibody (antibody, human IgG1, kappa, V domains shown) VH: QIQLVQSGPELREPGESVKLSCKASGYTFTDYLVHWVKQAPGKGLKWMGWINTYTGTPTYADDFEGRFVFSLEASASTANLQISNLKNEDTATYFCARSWRRGIRGIGFDYWGQGVFVTVSS VL: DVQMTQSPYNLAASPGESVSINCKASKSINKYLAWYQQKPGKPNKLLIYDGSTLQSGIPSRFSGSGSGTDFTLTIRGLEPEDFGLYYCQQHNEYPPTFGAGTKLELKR and give its recorded kon.
579000
